Origin of measurements: patent US20120178701A1

Biological target: human recombinant melanocortin-4 receptor (human), P32245
Sequence (P32245 whole entry): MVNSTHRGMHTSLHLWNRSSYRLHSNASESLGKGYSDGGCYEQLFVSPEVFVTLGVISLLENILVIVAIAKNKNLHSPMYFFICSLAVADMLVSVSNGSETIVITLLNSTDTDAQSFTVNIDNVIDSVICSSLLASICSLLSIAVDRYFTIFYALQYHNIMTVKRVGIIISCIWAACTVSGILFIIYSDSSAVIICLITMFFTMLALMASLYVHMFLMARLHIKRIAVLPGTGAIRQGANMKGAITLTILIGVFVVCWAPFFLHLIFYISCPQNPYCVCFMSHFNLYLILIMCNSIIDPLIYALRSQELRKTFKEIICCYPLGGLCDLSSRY
Assay: competitive inhibition of [I125]-NDP-α-MSH, hMC4-R HEK-293 membranes
Details: remark: other sources report otherwise
pKi: −log10 of the molar value. Bridge positions count the residues as written; N and C are the ends. Square brackets hold non-standard residues; d marks the D form. Orn = NCCC[C@H](N)C(=O)O; Dab = NCC[C@H](N)C(=O)O; Sar = CNCC(=O)O
measurementLabel: pKi

[I] Cyclohexanoyl-RD[Dab][dF]RWK-NH2 (lactam 2-7) [Cyclohexanoyl-Arg-cyclo(Asp-Dab-D-Phe-Arg-Trp-Lys)-NH2]
[II] Phenylacetyl-RD[Dab][dF]RWK-NH2 (lactam 2-7) [Phenylacetyl-Arg-cyclo(Asp-Dab-D-Phe-Arg-Trp-Lys)-NH2]
[III] Ac-RD[Orn](Ac)[dF]RWK-NH2 (lactam 2-7) [Ac-Arg-cyclo(Asp-Orn(Acetyl)-D-Phe-Arg-Trp-Lys)-NH2]
[IV] Ac-RD[Sar][dF]RWK-NH2 (lactam 2-7) [Ac-Arg-cyclo(Asp-Sar-D-Phe-Arg-Trp-Lys)-NH2]
Arrange the items listed above so that pKi rises from first to last. Sort and list the labels as requested.
III, IV, II, I
(III: 6.24, IV: 7.82, II: 8.70, I: 9.40)
